# TARGET DESC: T1, human IL-17F (human, UniProt Q96PD4 31-163)
# T1 construct: made in Hek293 cells (GenBank AF384857); also called hIL-17F; hIL17F
# T1 sequence: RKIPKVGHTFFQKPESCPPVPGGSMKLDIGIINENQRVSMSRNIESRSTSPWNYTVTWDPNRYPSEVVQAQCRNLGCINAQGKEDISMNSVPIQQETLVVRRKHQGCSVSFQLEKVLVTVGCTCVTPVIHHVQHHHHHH
# RUN DESCRIPTION: AlphaScreen IL-17F-IL-17RC; vs IL17MS16A04
The binders listed here are annotated with their IC50 fold difference vs WT.
READOUT NAME: IC50 fold difference vs WT

BINDER | READOUT NAME | RESULT
IL17MS3064 (VHH, variant of IL17MS16A04; Kabat numbering) VHH: DVQLVESGGGLVQPGGSLRLSCAASGRTFSSYVVGWFRQAPGKEREFVGAISGSGDTIYYAVSEKGRFTISRDNSKNTLYLQMNSLRPEDTAVYYCTADQEFGYLRFGRSEYWGQGTLVTVSS | IC50 fold difference vs WT | 30.3 fold
IL17MS3063 (VHH, variant of IL17MS16A04; Kabat numbering) VHH: DVQLVESGGGLVQPGGSLRLSCAASGRTFSSYVVGWFRQAPGKEREFIGAISGSGESIYYAVSEKGRFTISRDNSKNTLYLQMNSLRPEDTAVYYCTADQEFGYLRFGRSEYWGQGTLVTVSS | IC50 fold difference vs WT | 3.7 fold
IL17MS3065 (VHH, variant of IL17MS16A04; Kabat numbering) VHH: DVQLVESGGGLVQPGGSLRLSCAASGRTFSSYVVGWFRQAPGKEREFIGAISGSGDTIYYAVSEKGRFTISRDNSKNTLYLQMNSLRPEDTAVYYCTADQEFGYLRFGRSEYWGQGTLVTVSS | IC50 fold difference vs WT | 12.7 fold
